Listed compounds paired with reported Ki
# assay-target: recombinant human ALK5 (TGF-βR1) protein (Homo sapiens, UniProt P36897)
# Sequence (P36897 34-503): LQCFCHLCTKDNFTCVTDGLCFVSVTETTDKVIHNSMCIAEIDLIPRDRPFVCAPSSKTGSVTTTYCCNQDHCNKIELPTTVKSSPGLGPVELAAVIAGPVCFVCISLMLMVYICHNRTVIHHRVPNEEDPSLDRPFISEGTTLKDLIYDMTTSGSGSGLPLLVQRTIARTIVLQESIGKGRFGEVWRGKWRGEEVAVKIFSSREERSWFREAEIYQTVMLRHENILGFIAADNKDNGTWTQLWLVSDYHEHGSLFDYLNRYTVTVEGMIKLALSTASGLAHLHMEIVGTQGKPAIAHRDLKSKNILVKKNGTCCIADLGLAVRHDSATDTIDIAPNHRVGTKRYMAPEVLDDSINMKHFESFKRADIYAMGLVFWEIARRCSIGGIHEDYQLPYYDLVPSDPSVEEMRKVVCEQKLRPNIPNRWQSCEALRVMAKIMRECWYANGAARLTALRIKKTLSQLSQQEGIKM
# assay-info: Biochemical ALK5 (TGF-βR1) assay to measure pKi (LANCE Ultra ULight kinase assay)
# experimental-context: apparent pKi, converted from pIC50 using the Cheng-Prusoff equation
measurement-name: Ki

> print(dat)
                                    compound              result
 1  CNC1CCN(c2cnc3ccc(-c4nc[nH]c4-c4cc(Cl)ccc4F)nc3c2)CC1 [Compound 2-9]         ≤ 0.0316 nM
 2  CN(C)C1CC=C(c2cnc3ccc(-c4c[nH]nc4-c4ccc(F)c(F)c4)nc3c2)CC1 (stereo not shown) [Compound 8-25]  0.0398 to 0.316 nM
 3  NCCn1cc(-c2cnc3ccc(-c4c[nH]nc4-c4ccc(F)c(F)c4)nc3c2)cn1 [Compound 8-17]         ≤ 0.0316 nM
 4  Fc1cc(F)c(-c2n[nH]cc2-c2ccc3ncc(-c4cn[nH]c4)cc3n2)cc1Cl [Compound 6-6]  0.0398 to 0.316 nM
 5  Fc1cc(F)c(-c2n[nH]cc2-c2ccc3ncc(NC4CCNCC4)cc3n2)cc1Cl [Compound 6-10]  0.0398 to 0.316 nM
 6  CC1(C)CCCN1CCNc1cnc2ccc(-c3c[nH]nc3-c3cc(Cl)ccc3F)nc2c1 [Compound 1-13]  0.0398 to 0.316 nM
 7  CN(CC1CNC1)c1cnc2ccc(-c3c[nH]nc3-c3cc(Cl)c(F)cc3F)nc2c1 [Compound 6-32]  0.0398 to 0.316 nM
 8  NC1CCN(c2cnc3ccc(-c4c[nH]nc4-c4cc(Cl)c(F)cc4F)nc3c2)C1 (stereo not shown) [Compound 6-34]         ≤ 0.0316 nM
 9  CN1CCN(CC(C)(C)Nc2cnc3ccc(-c4c[nH]nc4-c4cc(Cl)ccc4F)nc3c2)CC1 [Compound 1-9]     3.98 to 31.6 nM
10  CNC1CCN(c2cnc3ccc(-c4c[nH]nc4-c4cccc(COC)c4)nc3c2)CC1 [Compound 14-1]     3.98 to 31.6 nM
11  Fc1cc(F)c(-c2n[nH]cc2-c2ccc3ncc(NCCN4CCNCC4)cc3n2)cc1Cl [Compound 6-9]  0.0398 to 0.316 nM
12  CN1CCN(c2ccc(Nc3cnc4ccc(-c5c[nH]nc5-c5cc(Cl)ccc5F)nc4c3)nc2)CC1 [Compound 1-29]  0.0398 to 0.316 nM
13  NC1CN(c2cnc3ccc(-c4c[nH]nc4-c4cc(Cl)c(F)cc4F)nc3c2)C1 [Compound 6-30]  0.0398 to 0.316 nM
14  Fc1ccc(Cl)cc1-c1[nH]cnc1-c1ccc2ncc(-c3nc4n(n3)CCNC4)cc2c1 [Compound 17-13]  0.0398 to 0.316 nM
15  Fc1ccc(Cl)cc1-c1nc2ccccn2c1-c1ccc2ncc(-c3cn[nH]c3)cc2c1 [Compound 19-3]    0.398 to 3.16 nM
16  Fc1ccc(Cl)cc1-c1n[nH]cc1-c1ccc2ncc(-c3cnn(CCNCc4ccccc4)c3)cc2n1 [Compound 1-95]  0.0398 to 0.316 nM
